Molecular target: T1, TAFV GP on VSV pseudotype particles (Tai Forest virus (TAFV), UniProt Q66810 33-676)
T1 sequence: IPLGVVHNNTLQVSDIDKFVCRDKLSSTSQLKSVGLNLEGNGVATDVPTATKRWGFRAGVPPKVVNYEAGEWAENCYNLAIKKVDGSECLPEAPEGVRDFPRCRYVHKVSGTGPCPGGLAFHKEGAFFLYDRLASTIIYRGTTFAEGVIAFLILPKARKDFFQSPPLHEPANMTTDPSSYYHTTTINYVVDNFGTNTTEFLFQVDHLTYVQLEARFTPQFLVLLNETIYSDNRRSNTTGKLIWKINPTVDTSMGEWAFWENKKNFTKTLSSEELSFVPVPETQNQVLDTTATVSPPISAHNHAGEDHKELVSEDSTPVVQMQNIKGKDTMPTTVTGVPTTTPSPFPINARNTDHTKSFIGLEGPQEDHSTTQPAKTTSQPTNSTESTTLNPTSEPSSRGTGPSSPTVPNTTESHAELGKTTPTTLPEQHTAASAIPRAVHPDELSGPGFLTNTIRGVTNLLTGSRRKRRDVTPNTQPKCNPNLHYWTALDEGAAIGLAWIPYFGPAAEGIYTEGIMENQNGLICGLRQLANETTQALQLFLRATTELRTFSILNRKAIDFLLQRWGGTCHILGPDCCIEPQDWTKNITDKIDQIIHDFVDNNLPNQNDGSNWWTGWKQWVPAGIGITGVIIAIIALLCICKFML
Test: cell-based or functional assay
// reported IC50, half-maximal neutralization of viral infectivity (rVSV-GP) for each item listed
Numbers only; they are read as nM.

| binder | observed measurement |
| --- | --- |
| PE-87 V102A (antibody, V domains shown) VH: QVQLVQSGVTLVQPGGSLRVSCAASGFTFSSYAMSWVRQAPGKGLEWVSAISGLGGSTYYADSVKGRFTISRDNSKNTLYLQMNSLRAEDTAVYYCAKDHRAWAAGYHFDYWGQGALVTVSS VL: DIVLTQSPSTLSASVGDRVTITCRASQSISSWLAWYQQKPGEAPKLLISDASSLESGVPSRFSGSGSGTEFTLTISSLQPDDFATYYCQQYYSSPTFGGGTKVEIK | 1 |
| PE-87 Y107A (antibody, V domains shown) VH: QVQLVQSGVTLVQPGGSLRVSCAASGFTFSSYAMSWVRQAPGKGLEWVSAISGLGGSTYYADSVKGRFTISRDNSKNTLYLQMNSLRAEDTAVYYCAKDHRVWAAGAHFDYWGQGALVTVSS VL: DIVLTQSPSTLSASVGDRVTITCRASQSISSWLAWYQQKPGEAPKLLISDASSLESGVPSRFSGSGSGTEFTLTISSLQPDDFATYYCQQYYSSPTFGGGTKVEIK | 0.8 |
| PE-87 D110A (antibody, V domains shown) VH: QVQLVQSGVTLVQPGGSLRVSCAASGFTFSSYAMSWVRQAPGKGLEWVSAISGLGGSTYYADSVKGRFTISRDNSKNTLYLQMNSLRAEDTAVYYCAKDHRVWAAGYHFAYWGQGALVTVSS VL: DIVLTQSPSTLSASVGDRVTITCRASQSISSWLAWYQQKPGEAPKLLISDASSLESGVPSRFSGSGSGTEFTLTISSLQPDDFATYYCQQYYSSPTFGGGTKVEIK | 2.1 |
| PE-87 Y111A (antibody, V domains shown) VH: QVQLVQSGVTLVQPGGSLRVSCAASGFTFSSYAMSWVRQAPGKGLEWVSAISGLGGSTYYADSVKGRFTISRDNSKNTLYLQMNSLRAEDTAVYYCAKDHRVWAAGYHFDAWGQGALVTVSS VL: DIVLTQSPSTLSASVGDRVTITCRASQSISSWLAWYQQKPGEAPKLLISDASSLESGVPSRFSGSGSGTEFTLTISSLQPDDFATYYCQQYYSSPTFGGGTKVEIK | 1.1 |
| PE-87 H100A (antibody, V domains shown) VH: QVQLVQSGVTLVQPGGSLRVSCAASGFTFSSYAMSWVRQAPGKGLEWVSAISGLGGSTYYADSVKGRFTISRDNSKNTLYLQMNSLRAEDTAVYYCAKDARVWAAGYHFDYWGQGALVTVSS VL: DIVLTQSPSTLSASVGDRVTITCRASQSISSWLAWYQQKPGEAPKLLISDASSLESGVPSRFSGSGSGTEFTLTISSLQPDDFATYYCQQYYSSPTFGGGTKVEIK | 0.8 |
| PE-87 H108A (antibody, V domains shown) VH: QVQLVQSGVTLVQPGGSLRVSCAASGFTFSSYAMSWVRQAPGKGLEWVSAISGLGGSTYYADSVKGRFTISRDNSKNTLYLQMNSLRAEDTAVYYCAKDHRVWAAGYAFDYWGQGALVTVSS VL: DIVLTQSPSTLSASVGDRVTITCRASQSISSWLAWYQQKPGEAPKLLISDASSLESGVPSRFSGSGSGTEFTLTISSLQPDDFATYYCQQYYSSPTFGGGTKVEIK | 2.2 |

Inquiry: State the recorded IC50, half-maximal neutralization of viral infectivity (rVSV-GP) for this entry: PE-87 F109A (antibody, V domains shown) VH: QVQLVQSGVTLVQPGGSLRVSCAASGFTFSSYAMSWVRQAPGKGLEWVSAISGLGGSTYYADSVKGRFTISRDNSKNTLYLQMNSLRAEDTAVYYCAKDHRVWAAGYHADYWGQGALVTVSS VL: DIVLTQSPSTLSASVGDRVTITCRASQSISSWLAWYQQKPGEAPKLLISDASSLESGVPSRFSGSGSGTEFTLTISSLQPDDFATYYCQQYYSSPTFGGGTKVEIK
Reply text: 2.8

Inquiry: What does the data say about its IC50, half-maximal neutralization of viral infectivity (rVSV-GP)? Entry: PE-87 R101A (antibody, V domains shown) VH: QVQLVQSGVTLVQPGGSLRVSCAASGFTFSSYAMSWVRQAPGKGLEWVSAISGLGGSTYYADSVKGRFTISRDNSKNTLYLQMNSLRAEDTAVYYCAKDHAVWAAGYHFDYWGQGALVTVSS VL: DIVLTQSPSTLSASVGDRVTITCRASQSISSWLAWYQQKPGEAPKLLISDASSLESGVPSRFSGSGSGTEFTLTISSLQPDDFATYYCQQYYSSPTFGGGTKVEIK
Reply text: 1.9

Inquiry: Query (binder): PE-87 G106A (antibody, V domains shown) VH: QVQLVQSGVTLVQPGGSLRVSCAASGFTFSSYAMSWVRQAPGKGLEWVSAISGLGGSTYYADSVKGRFTISRDNSKNTLYLQMNSLRAEDTAVYYCAKDHRVWAAAYHFDYWGQGALVTVSS VL: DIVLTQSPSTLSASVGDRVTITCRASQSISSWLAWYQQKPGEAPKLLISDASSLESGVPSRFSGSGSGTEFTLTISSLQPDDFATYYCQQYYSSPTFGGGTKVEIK ; field requested: IC50, half-maximal neutralization of viral infectivity (rVSV-GP)
Reply text: 0.8
